protocol.text: in vitro
Format: in vitro ADME, rat
run.conditions: Sprague-Dawley, rat fecal lysate, pH 6; as principle in MSKE 100 µg/mL, rat fecal lysates, 24 h, relative to HBSS; read-out: relative recovery after incubation with the fecal lysates
outcome.measure: recovery at 24 h, 100 µg/mL (%)
Write the number in % without appending the unit.

Q: Would you mind telling me what recovery at 24 h, 100 µg/mL value was observed for COC(=O)c1cc(O)c(O)c(O)c1 [MG, methyl gallate] ?
Result: 54.7

====

protocol.text: Caco-2 transepithelial transport experiment
Format: in vitro ADME, human
run.conditions: human, Caco-2, pH 6, individual compound 20 μM, HBSS pH 6; read-out: Papp B to A
outcome.measure: Papp B→A at 240 min, 20 µM (×10⁻⁶ cm/s)
Write the number in ×10⁻⁶ cm/s without appending the unit.

Q: Would you mind telling me what Papp B→A at 240 min, 20 µM value was observed for COC(=O)c1cc(O)c(O)c(O)c1 [MG, methyl gallate] ?
Result: 7.02

====

protocol.text: Caco-2 transepithelial transport experiment
Format: in vitro ADME, human
run.conditions: human, Caco-2, pH 6, Papp A to B
outcome.measure: Papp A→B at 240 min (×10⁻⁶ cm/s)
Write the number in ×10⁻⁶ cm/s without appending the unit.

Q: Would you mind telling me what Papp A→B at 240 min value was observed for "O=C(O)c1cc(O)c(O)c(O)c1" ?
Result: 1.46

====

protocol.text: Caco-2 transepithelial transport experiment
Format: in vitro ADME, human
run.conditions: human, Caco-2, pH 6, Papp B to A
outcome.measure: Papp B→A at 240 min (×10⁻⁶ cm/s)
Write the number in ×10⁻⁶ cm/s without appending the unit.

Q: Would you mind telling me what Papp B→A at 240 min value was observed for "O=C(O)c1cc(O)c(O)c(O)c1" ?
Result: 8.04

====

protocol.text: in vitro
Type: in vitro ADME, rat
run.conditions: Sprague-Dawley, pH 6; as principle in MSKE 100 µg/mL, rat fecal lysates, 24 h, relative to HBSS; read-out: relative recovery after incubation with the fecal lysates
outcome.measure: recovery at 24 h, 100 µg/mL
Number first, unit second: that is the form wanted.

Q: Would you mind telling me what recovery at 24 h, 100 µg/mL value was observed for "O=C(O)c1cc(O)c(O)c(O)c1" ?
Result: 167%

====

protocol.text: Excretion in urine and feces after oral administration in rats
Assay type: in vivo, Sprague-Dawley rats
run.conditions: Sprague-Dawley, rat, blood, urine and feces, oral, MSKE 143 mg/kg (20 mg/kg PGG and 0.13 mg/kg MG), 0-24 h, read-out: % recovery (total mass recovery: blood + urine + feces / initial mass)
outcome.measure: dose excreted (%)
Write the number in % without appending the unit.

Q: Would you mind telling me what dose excreted value was observed for COC(=O)c1cc(O)c(O)c(O)c1 [MG, methyl gallate] ?
Result: 73.4

====

protocol.text: Caco-2 transepithelial transport experiment
Assay type: in vitro ADME, human
run.conditions: human, Caco-2, pH 6, as principle in MSKE 0.25 mg/mL, HBSS pH 6; read-out: Papp A to B
outcome.measure: Papp A→B at 240 min (×10⁻⁶ cm/s)
Write the number in ×10⁻⁶ cm/s without appending the unit.

Q: Would you mind telling me what Papp A→B at 240 min value was observed for COC(=O)c1cc(O)c(O)c(O)c1 [MG, methyl gallate] ?
Result: 17.6

====

protocol.text: Caco-2 transepithelial transport experiment
Type: in vitro ADME, human
run.conditions: human, Caco-2, pH 6, in mixture 20 μM; Papp BA/Papp AB; read-out: Efflux Ratios
outcome.measure: efflux ratio at 240 min, 20 µM

Q: Would you mind telling me what efflux ratio at 240 min, 20 µM value was observed for COC(=O)c1cc(O)c(O)c(O)c1 [MG, methyl gallate] ?
Result: 0.51

====

protocol.text: In vivo oral pharmacokinetic study in SD rats
Design: species or system Sprague-Dawley rats
run.conditions: Sprague-Dawley, rat, blood, po, mixture of MG and PGG 20 mg/kg each, read-out: Ke (converted)
outcome.measure: k el (s⁻¹)
Write the number in s⁻¹ without appending the unit.

Q: Would you mind telling me what k el value was observed for COC(=O)c1cc(O)c(O)c(O)c1 [MG, methyl gallate] ?
Result: 1e-05

====

protocol.text: in vitro
Assay type: in vitro ADME, rat
run.conditions: Sprague-Dawley, rat fecal lysate, pH 6; mixture of GA, MG and PGG 10 µM each, rat fecal lysates, 24 h; read-out: recovery after incubation with the fecal lysates
outcome.measure: recovery at 24 h, 10 µM (%)
Write the number in % without appending the unit.

Q: Would you mind telling me what recovery at 24 h, 10 µM value was observed for COC(=O)c1cc(O)c(O)c(O)c1 [MG, methyl gallate] ?
Result: 55.4

====

protocol.text: In vivo oral pharmacokinetic study in SD rats
Set-up: species or system Sprague-Dawley rats
run.conditions: Sprague-Dawley, rat, blood, po, mixture of MG and PGG 20 mg/kg each
outcome.measure: MRT last (h)
Write the number in h without appending the unit.

Q: Would you mind telling me what MRT last value was observed for COC(=O)c1cc(O)c(O)c(O)c1 [MG, methyl gallate] ?
Result: 8.69

====

protocol.text: In vivo oral pharmacokinetic study in SD rats
Design: species or system Sprague-Dawley rats
run.conditions: Sprague-Dawley, rat, po, mixture of MG and PGG 20 mg/kg each, blood
outcome.measure: Cmax
Number first, unit second: that is the form wanted.

Q: Would you mind telling me what Cmax value was observed for COC(=O)c1cc(O)c(O)c(O)c1 [MG, methyl gallate] ?
Result: 1130 nM

====

protocol.text: Caco-2 transepithelial transport experiment
Format: in vitro ADME, human
run.conditions: human, Caco-2, pH 6, as principle in MSKE 0.25 mg/mL, HBSS pH 6; read-out: Papp B to A
Experimental: The transport experiment using Caco-2 monolayer was performed according to the criteria in our laboratory as previously reported with slight modification. […] The lysate was divided into the following aliquots: (1) 20 μL for quantitative protein assessment using a BCA™ protein assay kit and (2) 580 μL for quantitative test compounds. […]
outcome.measure: Papp B→A at 240 min (×10⁻⁶ cm/s)
Write the number in ×10⁻⁶ cm/s without appending the unit.

Q: Would you mind telling me what Papp B→A at 240 min value was observed for COC(=O)c1cc(O)c(O)c(O)c1 [MG, methyl gallate] ?
Result: 11.3
